Biological target: human P-gp (MDR1) (Homo sapiens, UniProt P08183)
Sequence (P08183 whole entry): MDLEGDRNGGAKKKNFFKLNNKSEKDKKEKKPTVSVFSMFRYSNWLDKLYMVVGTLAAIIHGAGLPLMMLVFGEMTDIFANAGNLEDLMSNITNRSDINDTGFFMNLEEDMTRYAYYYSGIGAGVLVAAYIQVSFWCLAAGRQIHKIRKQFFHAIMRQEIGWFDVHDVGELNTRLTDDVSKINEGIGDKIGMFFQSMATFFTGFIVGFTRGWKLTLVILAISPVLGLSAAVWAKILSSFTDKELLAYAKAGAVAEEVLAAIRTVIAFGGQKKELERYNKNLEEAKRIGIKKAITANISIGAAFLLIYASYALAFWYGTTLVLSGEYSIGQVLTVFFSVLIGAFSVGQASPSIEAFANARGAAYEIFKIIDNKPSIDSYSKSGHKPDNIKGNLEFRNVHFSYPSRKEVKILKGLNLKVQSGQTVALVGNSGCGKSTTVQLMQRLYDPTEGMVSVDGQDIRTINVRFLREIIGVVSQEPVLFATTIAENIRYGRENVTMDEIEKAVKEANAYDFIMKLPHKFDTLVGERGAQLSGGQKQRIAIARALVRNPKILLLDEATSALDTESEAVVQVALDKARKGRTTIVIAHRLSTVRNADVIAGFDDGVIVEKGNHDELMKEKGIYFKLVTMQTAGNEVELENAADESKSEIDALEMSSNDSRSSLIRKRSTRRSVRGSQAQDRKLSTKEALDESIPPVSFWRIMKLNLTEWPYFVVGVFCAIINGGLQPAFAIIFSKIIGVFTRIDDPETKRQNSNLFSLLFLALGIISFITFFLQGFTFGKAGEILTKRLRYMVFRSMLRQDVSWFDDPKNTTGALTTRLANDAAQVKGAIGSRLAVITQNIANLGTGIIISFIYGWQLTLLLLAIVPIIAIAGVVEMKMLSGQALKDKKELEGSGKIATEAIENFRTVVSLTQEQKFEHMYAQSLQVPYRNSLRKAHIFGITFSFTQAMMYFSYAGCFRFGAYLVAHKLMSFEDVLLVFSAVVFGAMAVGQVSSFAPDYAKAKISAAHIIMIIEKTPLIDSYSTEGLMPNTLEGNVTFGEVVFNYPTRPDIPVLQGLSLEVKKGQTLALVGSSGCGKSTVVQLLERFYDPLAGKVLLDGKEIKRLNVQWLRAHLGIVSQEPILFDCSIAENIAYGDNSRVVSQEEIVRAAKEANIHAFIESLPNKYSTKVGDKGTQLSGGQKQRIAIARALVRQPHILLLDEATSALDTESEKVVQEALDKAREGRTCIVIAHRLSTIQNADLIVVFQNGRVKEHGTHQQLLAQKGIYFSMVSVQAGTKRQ
Assay: Bidirectional permeability and efflux ratio in MDR1‐MDCK cells
Type: in vitro ADME
Details: human, MDCK-MDR1
Listed below: Papp B→A at 2 h, 1 μmol/L values for each entry.
All answers are understood in ×10⁻⁶ cm/s, so give the number only.

NC(=O)N1c2ccccc2C=Cc2ccccc21 [Carbamazepine, carbamazepine]; 22.8
CN(C)CCCC1(c2ccc(F)cc2)OCc2cc(C#N)ccc21 (stereo not drawn); 23.7
CC(=O)Nc1ccc(O)cc1; 14.3
Nc1nc2[nH]cc(CCc3ccc(C(=O)N[C@@H](CCC(=O)O)C(=O)O)cc3)c2c(=O)[nH]1; 0.442
Cc1cc(=O)n(-c2ccccc2)n1C [Antipyrine]; 25.8

What value of Papp B→A at 2 h, 1 μmol/L has been recorded for this entry: CC(C)NCC(O)COc1cccc2ccccc12 (stereo not drawn)
16.8

What value of Papp B→A at 2 h, 1 μmol/L has been recorded for this entry: `COc1ccc([C@@H]2Sc3ccccc3N(CCN(C)C)C(=O)[C@@H]2OC(C)=O)cc1`
18.7

What value of Papp B→A at 2 h, 1 μmol/L has been recorded for this entry: `CNS(=O)(=O)Cc1ccc2[nH]cc(CCN(C)C)c2c1`
1.54

What value of Papp B→A at 2 h, 1 μmol/L has been recorded for this entry: `CN/C(=N/CCSCc1nc[nH]c1C)NC#N`
3.22

---

Assay: Rat pharmacokinetic study, IV single bolus
Settings: male, Sprague-Dawley, in vivo, iv
recorded_endpoint: Vd
# include the unit after the value

Look over these answered cases.
C[C@H]1O[C@@H](O[C@H]2[C@@H](O)C[C@H](O[C@H]3[C@@H](O)C[C@H](O[C@H]4CC[C@@]5(C)[C@H](CC[C@@H]6[C@@H]5C[C@@H](O)[C@]5(C)[C@@H](C7=CC(=O)OC7)CC[C@]65O)C4)O[C@@H]3C)O[C@@H]2C)C[C@H](O)[C@@H]1O; 0.376 L/kg
Cn1c(=O)c2[nH]cnc2n(C)c1=O; 0.453 L/kg
CNS(=O)(=O)Cc1ccc2[nH]cc(CCN(C)C)c2c1; 3.11 L/kg
COc1ccc([C@@H]2Sc3ccccc3N(CCN(C)C)C(=O)[C@@H]2OC(C)=O)cc1; 2.85 L/kg
CC(=O)Nc1ccc(O)cc1; 2.87 L/kg

What value of Vd has been recorded for this entry: Cc1cc(=O)n(-c2ccccc2)n1C [Antipyrine]
0.724 L/kg

What value of Vd has been recorded for this entry: `CN/C(=N/CCSCc1nc[nH]c1C)NC#N`
3.3 L/kg

What value of Vd has been recorded for this entry: `Nc1nc(O)c2ncn(COC(CO)CO)c2n1`
0.852 L/kg

What value of Vd has been recorded for this entry: CC(C)NCC(O)COc1cccc2ccccc12 (centres unmarked)
4.64 L/kg

What value of Vd has been recorded for this entry: `Nc1nnc(-c2cccc(Cl)c2Cl)c(N)n1`
1.86 L/kg

What value of Vd has been recorded for this entry: `Nc1nc2[nH]cc(CCc3ccc(C(=O)N[C@@H](CCC(=O)O)C(=O)O)cc3)c2c(=O)[nH]1`
0.637 L/kg

What value of Vd has been recorded for this entry: CN(C)CCCC1(c2ccc(F)cc2)OCc2cc(C#N)ccc21 (centres unmarked)
6.45 L/kg

What value of Vd has been recorded for this entry: CC1COc2c(N3CCN(C)CC3)c(F)cc3c(=O)c(C(=O)O)cn1c23 (centres unmarked)
5.08 L/kg

What value of Vd has been recorded for this entry: NC(=O)N1c2ccccc2C=Cc2ccccc21 [Carbamazepine, carbamazepine]
0.745 L/kg

---

Test: Bidirectional permeability and efflux ratio in Caco‐2 cells
Assay type: in vitro ADME, human
Conditions: human, Caco-2, Efflux ratio, Caco‐2 cell line, P app(B–A)/P app(A–B)
recorded_endpoint: efflux ratio at 2 h, 5 μmol/L

Look over these answered cases.
CNS(=O)(=O)Cc1ccc2[nH]cc(CCN(C)C)c2c1 [Sumatriptan, sumatriptan]; 2.12
Nc1nc2[nH]cc(CCc3ccc(C(=O)N[C@@H](CCC(=O)O)C(=O)O)cc3)c2c(=O)[nH]1 [Pemetrexed, pemetrexed]; < 2

Consider the additional molecule presented here.
What value of efflux ratio at 2 h, 5 μmol/L has been recorded for this entry: CN(C)CCCC1(c2ccc(F)cc2)OCc2cc(C#N)ccc21 (stereo not drawn) [Citalopram, citalopram]
< 2

---

Listed below: Papp B→A at 2 h, 5 μmol/L values for each entry.
Experiment: Bidirectional permeability and efflux ratio in Caco‐2 cells
Format: in vitro ADME, human
Conditions: human, Caco-2
All answers are understood in ×10⁻⁶ cm/s, so give the number only.

What value of Papp B→A at 2 h, 5 μmol/L has been recorded for this entry: `CNS(=O)(=O)Cc1ccc2[nH]cc(CCN(C)C)c2c1`
1.91

---

Molecular target: UniProt P08183
Test: Bidirectional permeability and efflux ratio in MDR1‐MDCK cells
Format: in vitro ADME
Conditions: MDR1‐MDCK cell line, P app(B–A)/P app(A–B)
# cutoff 1 applies to Efflux ratio; >= gives True, < gives False

Below are worked cases with known answers.
COc1ccc([C@@H]2Sc3ccccc3N(CCN(C)C)C(=O)[C@@H]2OC(C)=O)cc1; True
Nc1nc2[nH]cc(CCc3ccc(C(=O)N[C@@H](CCC(=O)O)C(=O)O)cc3)c2c(=O)[nH]1; False
CN/C(=N/CCSCc1nc[nH]c1C)NC#N; True
NC(=O)N1c2ccccc2C=Cc2ccccc21 [Carbamazepine, carbamazepine]; False

Does the compound Cc1c(N)c(=O)n(-c2ccccc2)n1C [4‐Aminoantipyrine, 4‐aminoantipyrine] have recorded Efflux ratio that is 1 or more?
False

Does the compound CN(C)CCCC1(c2ccc(F)cc2)OCc2cc(C#N)ccc21 (stereo not drawn) have recorded Efflux ratio that is 1 or more?
True

---

System: efflux transporters (eg, P‐gp, BCRP, MRPs)
Experiment: Classification as efflux transporter substrate
Conditions: Yes/No
recorded_endpoint: Efflux transporter substrate

Look over these answered cases.
NC(=O)N1c2ccccc2C=Cc2ccccc21 [Carbamazepine, carbamazepine]; No
CN(C)CCCC1(c2ccc(F)cc2)OCc2cc(C#N)ccc21 (stereo not shown) [Citalopram, citalopram]; No
CN/C(=N/CCSCc1nc[nH]c1C)NC#N [Cimetidine]; Yes
Cc1cc(=O)n(-c2ccccc2)n1C [Antipyrine]; No
C[C@H]1O[C@@H](O[C@H]2[C@@H](O)C[C@H](O[C@H]3[C@@H](O)C[C@H](O[C@H]4CC[C@@]5(C)[C@H](CC[C@@H]6[C@@H]5C[C@@H](O)[C@]5(C)[C@@H](C7=CC(=O)OC7)CC[C@]65O)C4)O[C@@H]3C)O[C@@H]2C)C[C@H](O)[C@@H]1O [Digoxin, digoxin]; Yes

Consider the additional compound presented here.
What value of Efflux transporter substrate has been recorded for this entry: CNS(=O)(=O)Cc1ccc2[nH]cc(CCN(C)C)c2c1 [Sumatriptan, sumatriptan]
Yes

---

Tested on: efflux transporters (eg, P‐gp, BCRP, MRPs)
Experiment: Classification as efflux transporter substrate
Details: parental MDCK, MDR1‐MDCK, and Caco‐2 cell lines
recorded_endpoint: Class (based on membrane permeability and ER value)

Look over these answered cases.
COc1ccc([C@@H]2Sc3ccccc3N(CCN(C)C)C(=O)[C@@H]2OC(C)=O)cc1; Class I
CNS(=O)(=O)Cc1ccc2[nH]cc(CCN(C)C)c2c1; Class II
Nc1nc2[nH]cc(CCc3ccc(C(=O)N[C@@H](CCC(=O)O)C(=O)O)cc3)c2c(=O)[nH]1; Class II
CC(C)NCC(O)COc1cccc2ccccc12 (stereo not shown); Class I
NC(=O)N1c2ccccc2C=Cc2ccccc21 [Carbamazepine, carbamazepine]; Class I
CN/C(=N/CCSCc1nc[nH]c1C)NC#N; Class II
C[C@H]1O[C@@H](O[C@H]2[C@@H](O)C[C@H](O[C@H]3[C@@H](O)C[C@H](O[C@H]4CC[C@@]5(C)[C@H](CC[C@@H]6[C@@H]5C[C@@H](O)[C@]5(C)[C@@H](C7=CC(=O)OC7)CC[C@]65O)C4)O[C@@H]3C)O[C@@H]2C)C[C@H](O)[C@@H]1O; Class II
Cc1cc(=O)n(-c2ccccc2)n1C [Antipyrine]; Class I
CN(C)CCCC1(c2ccc(F)cc2)OCc2cc(C#N)ccc21 (stereo not shown); Class I

Consider the additional molecule presented here.
What value of Class (based on membrane permeability and ER value) has been recorded for this entry: Cc1c(N)c(=O)n(-c2ccccc2)n1C [4‐Aminoantipyrine, 4‐aminoantipyrine]
Class I

---

Listed below: Efflux ratio values for each entry.
Tested on: Caco‐2 cell line
Assay: Bidirectional permeability and efflux ratio in Caco‐2 cells
Assay type: in vitro ADME, human
Settings: Caco‐2 cell line, P app(B–A)/P app(A–B)
No unit in the answer, only the number.

CC(C)NCC(O)COc1cccc2ccccc12 (stereo not drawn); 0.654
COc1ccc([C@@H]2Sc3ccccc3N(CCN(C)C)C(=O)[C@@H]2OC(C)=O)cc1; 0.926

What value of Efflux ratio has been recorded for this entry: `CN/C(=N/CCSCc1nc[nH]c1C)NC#N`
9.20

Taken from paper PMC7138916.
